Each entry below carries its recorded bioavailability.
- protocolDetails: Single dose pharmacokinetics, oral bioavailability
- Format: in vivo, Sprague-Dawley rats
- measurementParameters: rat, in vivo, po, 5 mg/kg

| smilesText | bioavailability [%] |
| --- | --- |
| O=C(Nc1nc2ccccc2s1)c1cccc2c1CN(c1ccc(-c3cnn(CC45CC6CC(CC(C6)O4)C5)c3)c(C(=O)O)n1)CC2 | 10 |
| Cc1c(-c2ccc(N3CCc4cccc(C(=O)Nc5nc6cccnc6s5)c4C3)nc2C(=O)O)cnn1CC12CC3CC(CC(C3)C1)C2 | 29 |
| COC12CC3CC(CC(Cn4ncc(-c5ccc(N6CCc7cccc(C(=O)Nc8nc9ccccc9s8)c7C6)nc5C(=O)O)c4C)(C3)C1)C2 | 20 |
| Cc1c(-c2ccc(N3CCc4cccc(C(=O)Nc5nc6ccccc6s5)c4C3)nc2C(=O)NS(=O)(=O)C2CC2)cnn1CC12CC3CC(CC(C3)C1)C2 | 31 |
